target: sPHGDH (aa 3-314), cofactor-binding pocket (Homo sapiens); construct: the truncated version (sPHGDH, aa 3-314); His6 (N, cleaved yes); TEV protease recognition site (N, cleaved yes); made in house; host or cells: E. coli Rosetta (DE3); test: ITC competition experiment (NADH titrated into sPHGDH premixed with fragment); details: ΔG per number of non-hydrogen atoms (= #)
Sequence (O43175 3-314): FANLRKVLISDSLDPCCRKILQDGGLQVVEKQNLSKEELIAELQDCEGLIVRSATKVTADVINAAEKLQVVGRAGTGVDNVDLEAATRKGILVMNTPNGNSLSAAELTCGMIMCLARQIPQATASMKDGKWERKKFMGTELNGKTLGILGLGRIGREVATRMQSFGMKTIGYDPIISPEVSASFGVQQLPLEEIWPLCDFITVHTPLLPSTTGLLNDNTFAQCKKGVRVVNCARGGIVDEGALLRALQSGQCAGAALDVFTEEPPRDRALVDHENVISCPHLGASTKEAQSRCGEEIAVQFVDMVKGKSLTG
Recorded LE values for a group of molecules are listed next.

Examples with their reported LE follow.
Cc1cccc2c(O)noc12 [Fragment 18] : 0.22 kcal/(mol·heavy atom)
Oc1noc2ccccc12 [Fragment 16, 3-Hydroxy benzisoxazole] : 0.3 kcal/(mol·heavy atom)
NC(=O)c1ccc(F)c(Cl)c1 [Fragment 5, 3-Chloro-4-fluorobenzamide] : 0.35 kcal/(mol·heavy atom)
Oc1ncnc2cccc(F)c12 [Fragment 4, 5-Fluoro-4-hydroxy quinazoline] : 0.21 kcal/(mol·heavy atom)
O=C1COc2cc(O)ccc21 [Fragment 8] : 0.28 kcal/(mol·heavy atom)

**Query** Entry under review: Cc1cncc(Oc2cccc(CO)c2)n1 [Fragment 7] . Reported LE?
**Result** 0.15 kcal/(mol·heavy atom)

**Query** Need LE, item Oc1noc2ccc(F)cc12 [Fragment 19, 5-fluoro-3-hydroxybenzisoxazole]
**Result** 0.22 kcal/(mol·heavy atom)

**Query** If you can, please state the reported LE value of Cc1cccc2cc[nH]c12 [Fragment 6, 7-Methyl-1H-indole] .
**Result** 0.38 kcal/(mol·heavy atom)

**Query** Which value of LE has been reported for Cn1ccc2cc(N)ccc21 [Fragment 9, 5-Amino-1-methyl-1H-indole] in the records?
**Result** 0.24 kcal/(mol·heavy atom)

**Query** Fill blank: measured LE of the molecule Cn1nc(-c2ccccc2)cc1N [Fragment 3, 1-Methyl-3-phenyl-1H-pyrazol-5-amine] is ____.
**Result** 0.23 kcal/(mol·heavy atom)

**Query** So what does the record say about LE for Oc1noc2cc(Cl)ccc12 [Fragment 17, 6-chloro-3-hydroxybenzisoxazole] ?
**Result** 0.32 kcal/(mol·heavy atom)

**Query** I have this molecule here, Cc1ccc(F)cc1C(=O)O [Fragment 14, 5-Fluoro-2-methylbenzoic acid] , and I need its recorded LE.
**Result** 0.2 kcal/(mol·heavy atom)

**Query** Bench note: what LE did COc1ccc(NC(C)=O)cc1Cl [Fragment 15, N-(3-chloro-4-methoxyphenyl) acetamide] show?
**Result** 0.27 kcal/(mol·heavy atom)

**Query** Would you mind telling me what LE value was observed for Cc1cncc(Oc2cccc(N)c2)n1 [Fragment 11, 3-(6-Methylpyrazin-2-yl)oxyaniline] ?
**Result** 0.18 kcal/(mol·heavy atom)

**Query** Reported LE, molecule c1ccc(Cn2ccnc2)cc1 [Fragment 12, 1-Benzylimidazole] : ____
**Result** 0.22 kcal/(mol·heavy atom)

----------
molecular target: recombinant full-length PHGDH (Homo sapiens, UniProt O43175); construct: encoding for the full-length enzyme (aa 1-533); His6 (N, cleaved yes); TEV protease recognition site (N, cleaved yes); made in house; host or cells: E. coli Rosetta (DE3); test: Differential scanning fluorimetry (DSF) thermal shift assay, fragment screen; assay type: binding; conditions: fragment 1 mM; primary DSF screen; 15 μM PHGDH; read-out: ΔTm (screening hit)
Sequence (O43175 whole entry, the tested form may be a part): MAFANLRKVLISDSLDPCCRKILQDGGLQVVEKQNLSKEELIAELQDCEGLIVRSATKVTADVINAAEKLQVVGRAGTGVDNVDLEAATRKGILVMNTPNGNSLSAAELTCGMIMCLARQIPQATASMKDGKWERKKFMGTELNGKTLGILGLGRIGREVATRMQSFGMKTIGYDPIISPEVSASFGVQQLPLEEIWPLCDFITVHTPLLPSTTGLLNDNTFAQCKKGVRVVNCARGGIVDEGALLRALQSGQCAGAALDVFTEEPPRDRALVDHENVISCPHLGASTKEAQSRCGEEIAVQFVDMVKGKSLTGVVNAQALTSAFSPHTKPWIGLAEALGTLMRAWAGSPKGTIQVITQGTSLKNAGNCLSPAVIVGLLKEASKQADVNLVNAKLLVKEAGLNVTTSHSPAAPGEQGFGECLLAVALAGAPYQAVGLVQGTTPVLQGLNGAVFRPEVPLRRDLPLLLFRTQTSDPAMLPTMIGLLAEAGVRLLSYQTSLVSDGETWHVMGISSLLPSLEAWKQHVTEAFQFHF
RESULT_TYPE: ΔTm at 1000 µM (°C)

[A] Cn1nc(-c2ccccc2)cc1N [Fragment 3, 1-Methyl-3-phenyl-1H-pyrazol-5-amine]
[B] Nc1cccc(-c2cnco2)c1 [Fragment 10, 3-(1,3-oxazol-5-yl)aniline]
**Query** Which gives the smaller ΔTm at 1000 µM number: A or B ? The response must carry the label of the picked entry.
**Result** B
(B: 1.4 °C, A: 2.2 °C)
